System: HBEGF locus
Type: cell-based, human
Settings: high-throughput screen of dXR repression of the HBEGF gene; change in abundance of each domain in the library before and after diphtheria toxin selection
Measured Log2 (fold change) by item
experimental readout: Log2 (fold change)

molecule="DOMAIN_5946 (protein, listed as Homo sapiens) RQAFLAFGDVTVDFTQKEWRLLSPAQRALYREVTLENYSHLVSLGILHSKPELIRRLEQGEVPWGEERRRRPGPCAGIYAE" observed_result=3.2998
molecule="DOMAIN_5440 (protein, listed as Aotus trivirgatus) MAVDLLPAQESMTFRDVAVFFSQDEWLHLDSAQRALYREVMLENYSTLVSLGIPFSMPKVIHQLQQGQDPCMVEGEVPSDI" observed_result=2.7871
molecule="DOMAIN_143 (protein, listed as Pan paniscus) MAAMPLKAQYQEMVTFEDVAVHFTKTEWTGLSPAQRALYRSVMLENFGNLTALGYPVPKPALISLLEGGDMAWGLEAQDDP" observed_result=3.63
molecule="DOMAIN_4121 (protein, listed as Macaca mulatta) MAFEDVAVYFSQEEWGLLDTAQRALYRRVMLDNFALVASLGLSTSRPRVVIQLERGEEPWVPSGTDTILSRNTYRRRNPGS" observed_result=3.3195
molecule="DOMAIN_5006 (protein, listed as Callithrix sp.) MAFEDVAVYFSQEEWGLLDTAQRALYRRVMLDNFALVASLGLSTSRPRVVIQLERGEEPWVPSETDMTMSRNTHRRRNPGS" observed_result=3.8614
molecule="DOMAIN_6472 (protein, listed as Alligator sinensis) VVLLEAFEDVAVYFTQKEWALLDDGDKALYRDQMLRNYQALISLGYRGPTPALINRIQRGEMELWVCDKDYGEKSSLEGLF" observed_result=2.9259
molecule="DOMAIN_6410 (protein, listed as Podarcis muralis) GLVSFDEVSVHFTNEEWALLDPGQRALYEEVMEEIREMMTSVGDVSEFLTEGEQSEPSREGAEEQKEQRKQRVQVGTYRKE" observed_result=2.7633
molecule="DOMAIN_7109 (protein, Microcaecilia unicolor) MRVTFEDIAVSFSQEEWEYLDEEQKELYREVMKENYQTLISLGAGSLTFTPEIISHIERGEEPYSRDEPGSGEREPGKSRC" observed_result=2.9932
molecule="DOMAIN_6398 (protein, listed as Gopherus agassizii) MPVTFEEVAVYFTEGQGALLDPAQRALYRDVMQEIYEMVISLGFLLPKPDVIIQLERGEEPWVPDLQGSAEREMSRGTCAG" observed_result=2.8238
